molecules and their reported MIC
# System: Staphylococcus aureus
# Measurement Description: Compound was tested in vitro for its minimum inhibitory concentration by serial 2-fold agar dilution Muller Hinton method against Staphylococcus aureus 503
# Format: functional
// units = µg/mL; emit number, no label

Before answering, review these 2 worked examples.
> print(dat)
                                   molecule  parameter.measured  unit.of.measure  result.value
1  CCO/N=C(\C(=O)NC1C(=O)N2C(C(=O)[O-])=C(CN(C)c3scc(C)[n+]3C)CSC12)c1csc(N)n1 (stereo not drawn)                 MIC            µg/mL         0.391
2  CO/N=C(\C(=O)N[C@@H]1C(=O)N2C(C(=O)[O-])=C(C[n+]3cccc4c3CCC4)CS[C@H]12)c1csc(N)n1                 MIC            µg/mL         0.098

Now for a further molecule.
Identify the reported MIC for the following entry. CCO/N=C(\C(=O)NC1C(=O)N2C(C(=O)[O-])=C(CN(C)c3sc4c([n+]3C)CCCC4)CSC12)c1csc(N)n1 (stereo not drawn)
0.195

Cited source for all entries: ChEMBL document CHEMBL1133057
